src = patent US20200331925A1

- study.target: CDK7/Cyclin H (Homo sapiens, UniProt P50613)
- Sequence (P50613 whole entry): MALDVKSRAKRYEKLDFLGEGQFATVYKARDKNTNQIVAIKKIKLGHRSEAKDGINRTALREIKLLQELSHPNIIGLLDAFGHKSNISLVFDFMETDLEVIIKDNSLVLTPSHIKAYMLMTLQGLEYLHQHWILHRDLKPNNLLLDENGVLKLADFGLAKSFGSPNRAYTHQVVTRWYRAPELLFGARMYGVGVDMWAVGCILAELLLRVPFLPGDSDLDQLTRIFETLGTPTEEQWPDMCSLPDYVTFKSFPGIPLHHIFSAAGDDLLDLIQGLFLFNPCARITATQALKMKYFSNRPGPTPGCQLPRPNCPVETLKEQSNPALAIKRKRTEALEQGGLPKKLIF
- Sequence (P51946 whole entry partner): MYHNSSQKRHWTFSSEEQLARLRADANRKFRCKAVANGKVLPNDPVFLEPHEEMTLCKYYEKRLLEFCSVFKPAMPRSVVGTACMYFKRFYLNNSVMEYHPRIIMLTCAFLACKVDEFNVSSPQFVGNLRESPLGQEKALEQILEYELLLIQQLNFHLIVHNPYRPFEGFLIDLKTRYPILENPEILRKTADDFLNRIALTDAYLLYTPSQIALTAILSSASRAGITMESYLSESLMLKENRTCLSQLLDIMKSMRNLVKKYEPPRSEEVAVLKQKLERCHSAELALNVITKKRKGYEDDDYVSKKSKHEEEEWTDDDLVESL
- Sequence (P51948 whole entry partner): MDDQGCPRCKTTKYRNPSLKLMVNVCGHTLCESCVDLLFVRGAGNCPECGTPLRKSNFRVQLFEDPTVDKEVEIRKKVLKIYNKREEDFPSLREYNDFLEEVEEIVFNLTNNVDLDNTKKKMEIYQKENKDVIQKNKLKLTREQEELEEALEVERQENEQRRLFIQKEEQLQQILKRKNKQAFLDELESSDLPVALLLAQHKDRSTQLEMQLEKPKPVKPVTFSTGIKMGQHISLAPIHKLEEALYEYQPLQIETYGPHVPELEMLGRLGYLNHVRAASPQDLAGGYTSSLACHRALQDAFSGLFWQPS
- protocol.notes: CDK7/Cyclin H kinase assay (Nanosyn, Caliper microfluidic)
- stated.conditions: 12-point dose-response, ATP at Km (50 μM), 17 hr
Entries annotated with measured IC50

// solved cases for IC50 follow
{"smiles.str": "O=C1NCC2(CCCCC2)n2c1cc1cnc(N[C@H]3CCCNC3=O)nc12", "endpoint.result": "61000 nM"}
{"smiles.str": "O=C1NCC2(CCCCC2)n2c1cc1cnc(N[C@H]3CC[C@H](N4CCCCC4)CC3)nc12", "endpoint.result": "280 nM"}

Enquiry: Report IC50 for O=C(C[C@H]1CCCN1)Nc1ncc2cc3n(c2n1)C1(CCCCC1)CNC3=O
Return: 17000 nM

Enquiry: Report IC50 for O=C1NCC2(CCCCC2)n2c1cc1cnc(N[C@H]3CCCN[C@@H]3c3ccccc3)nc12
Return: 1800 nM

Enquiry: Report IC50 for O=C1NCC2(CCCCC2)n2c1cc1cnc(NC(=O)[C@H]3CCNC3)nc12
Return: 20000 nM

Enquiry: Report IC50 for C1=NCC2(CCCCC2)n2c1cc1cnc(N[C@H]3CCCNC3)nc12
Return: 42 nM

Enquiry: Report IC50 for NS(=O)(=O)c1cccc(Nc2ncc3cc4n(c3n2)C2(CCCCC2)CNC4=O)c1
Return: 240 nM

Enquiry: Report IC50 for O=C1NCC2(CCCCC2)n2c1cc1cnc(N[C@H]3CC[C@H](NCc4ccccc4F)CC3)nc12
Return: 230 nM

* * *

- study.target: CDK1/Cyclin B1 (Homo sapiens, UniProt P06493)
- Sequence (P06493 whole entry): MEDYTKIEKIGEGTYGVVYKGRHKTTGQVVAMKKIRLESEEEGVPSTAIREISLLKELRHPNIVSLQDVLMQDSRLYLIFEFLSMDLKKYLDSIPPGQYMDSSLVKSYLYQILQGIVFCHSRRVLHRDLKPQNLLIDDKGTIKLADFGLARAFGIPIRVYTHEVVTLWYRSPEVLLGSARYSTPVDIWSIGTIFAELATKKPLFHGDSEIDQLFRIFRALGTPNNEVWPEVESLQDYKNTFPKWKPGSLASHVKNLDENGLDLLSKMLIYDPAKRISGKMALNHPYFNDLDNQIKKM
- Sequence (P14635 whole entry partner): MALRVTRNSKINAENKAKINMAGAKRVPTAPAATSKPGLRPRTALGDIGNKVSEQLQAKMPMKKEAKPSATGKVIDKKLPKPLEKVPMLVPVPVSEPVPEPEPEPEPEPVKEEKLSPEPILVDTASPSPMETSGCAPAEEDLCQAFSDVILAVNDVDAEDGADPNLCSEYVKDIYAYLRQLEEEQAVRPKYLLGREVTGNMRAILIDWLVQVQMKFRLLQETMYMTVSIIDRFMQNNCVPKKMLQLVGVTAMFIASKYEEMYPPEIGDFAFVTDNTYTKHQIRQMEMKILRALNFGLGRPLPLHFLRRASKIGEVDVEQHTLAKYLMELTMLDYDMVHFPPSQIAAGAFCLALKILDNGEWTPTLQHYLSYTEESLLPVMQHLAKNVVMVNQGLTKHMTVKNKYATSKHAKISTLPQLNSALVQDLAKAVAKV
- protocol.notes: CDK1/Cyclin B1 kinase assay (Nanosyn, Caliper microfluidic)
- stated.conditions: 12-point dose-response, ATP at Km (40 μM), 3 hr
pIC50: −log10 of the molar value.
Would you mind labelling by pIC50? At or over 6 is criterion met, under is criterion not met.

For orientation, consider the following solved cases.
{"smiles.str": "CS(=O)(=O)N[C@H]1CC[C@H](Nc2ncc3cc4n(c3n2)C2(CCCCC2)CNC4=O)CC1", "study.target": "CDK1/Cyclin B1 (Homo sapiens, UniProt P06493)", "class.assignment": "criterion met"}
{"smiles.str": "O=C1NCC2(CCCCC2)n2c1cc1cnc(N[C@H]3Cc4ccccc4NC3=O)nc12", "study.target": "CDK1/Cyclin B1 (Homo sapiens, UniProt P06493)", "class.assignment": "criterion not met"}
{"smiles.str": "O=C1NCC2(CCCCC2)n2c1cc1cnc(N[C@H]3CC[C@H](N4CCOCC4)CC3)nc12", "study.target": "CDK1/Cyclin B1 (Homo sapiens, UniProt P06493)", "class.assignment": "criterion met"}
{"smiles.str": "N[C@H]1CC[C@H](Nc2ncc3cc4n(c3n2)C2(CCCCC2)CNC4=O)CC1", "study.target": "CDK1/Cyclin B1 (Homo sapiens, UniProt P06493)", "class.assignment": "criterion met"}
{"smiles.str": "O=C1NCC2(CCCCC2)n2c1cc1cnc(NC(=O)[C@@H]3CCNC3)nc12", "study.target": "CDK1/Cyclin B1 (Homo sapiens, UniProt P06493)", "class.assignment": "criterion not met"}

Enquiry: State whether the measured pIC50 reaches 6, counting equality as reaching it, for CN(C)[C@H]1CC[C@H](Nc2ncc3cc4n(c3n2)C2(CCCCC2)CNC4=O)CC1
Return: criterion met

Enquiry: State whether the measured pIC50 reaches 6, counting equality as reaching it, for O=C(C[C@@H]1CCCN1)Nc1ncc2cc3n(c2n1)C1(CCCCC1)CNC3=O
Return: criterion not met

Enquiry: State whether the measured pIC50 reaches 6, counting equality as reaching it, for C[C@H]1CC[C@H](Nc2ncc3cc4n(c3n2)C2(CCCCC2)CN=C4)CC1
Return: criterion not met

Enquiry: State whether the measured pIC50 reaches 6, counting equality as reaching it, for C[C@H]1NCCC[C@H]1C(=O)Nc1ncc2cc3n(c2n1)C1(CCCCC1)CNC3=O
Return: criterion not met

Enquiry: State whether the measured pIC50 reaches 6, counting equality as reaching it, for S=C1NCC2(CCCCC2)n2c1cc1cnc(N[C@@H]3CCCNC3)nc12
Return: criterion met

Enquiry: State whether the measured pIC50 reaches 6, counting equality as reaching it, for O=C1NCC2(CCCCC2)n2c1cc1cnc(N[C@@H]3C[C@@H](O)CNC3=O)nc12
Return: criterion not met

Enquiry: State whether the measured pIC50 reaches 6, counting equality as reaching it, for O=C1NCC2(CCCCC2)n2c1cc1cnc(NC(=O)[C@H]3CNCCN3)nc12
Return: criterion not met

Enquiry: State whether the measured pIC50 reaches 6, counting equality as reaching it, for O=C1NCC2(CCCCC2)n2c1cc1cnc(N[C@H]3CC[C@H](NCc4ccccc4F)CC3)nc12
Return: criterion met

Enquiry: State whether the measured pIC50 reaches 6, counting equality as reaching it, for O=C1NCC2(CCCCC2)n2c1cc1cnc(N[C@H]3CC[C@H](NCc4cccnc4)CC3)nc12
Return: criterion met

Enquiry: State whether the measured pIC50 reaches 6, counting equality as reaching it, for O=C1NCC2(CCCCC2)n2c1cc1cnc(NC(=O)[C@H]3CNCCO3)nc12
Return: criterion not met

Enquiry: State whether the measured pIC50 reaches 6, counting equality as reaching it, for O=C1NCC2(CCCCC2)n2c1cc1cnc(NC(=O)[C@H]3CCNC3)nc12
Return: criterion not met

Enquiry: State whether the measured pIC50 reaches 6, counting equality as reaching it, for O=C1NCC2(CCCCC2)n2c1cc1cnc(N[C@H]3CCCNC3)nc12
Return: criterion met
